Tested on: Trypanosoma brucei brucei
Measurement protocol: Antitrypanosomal activity against Trypanosoma brucei brucei S427 by resazurin dye based fluorescence assay
Assay type: functional
Metric name: GI50 (nM)

[ask] Query (compound): CCCCCCCCNC(=O)O[C@H]1C=C[C@]2(O[C@H]([C@@H](CC)C(=O)[C@@H](C)[C@@H](O)[C@H](C)[C@@H]3O[C@@H]([C@@H](CC)C(=O)O)CC[C@@H]3C)[C@@H](C)C[C@H]2C)O[C@@]12CC[C@@](C)([C@H]1CC[C@](O)(CC)[C@H](C)O1)O2 ; field requested: GI50
[reply] 200

1: CC[C@@H](C(=O)[C@@H](C)[C@@H](O)[C@H](C)[C@@H]1O[C@@H]([C@@H](CC)C(=O)O)CC[C@@H]1C)[C@H]1O[C@]2(C=C[C@H](OC(=O)C(C)C)[C@]3(CC[C@@](C)([C@H]4CC[C@](O)(CC)[C@H](C)O4)O3)O2)[C@H](C)C[C@@H]1C
2: CC[C@@H](C(=O)[C@@H](C)[C@@H](O)[C@H](C)[C@@H]1O[C@@H]([C@@H](CC)C(=O)ONC(=O)c2ccccc2O)CC[C@@H]1C)[C@H]1O[C@]2(C=C[C@H](OC(C)=O)[C@]3(CC[C@@](C)([C@H]4CC[C@](O)(CC)[C@H](C)O4)O3)O2)[C@H](C)C[C@@H]1C
[ask] GI50 comparison. Which is larger, 1 or 2 ? Which one? Tell me its label.
[reply] 2
(2: 590 nM, 1: 36 nM)
